Literature roundup of MAPK1(ERK2) enzyme (Homo sapiens, UniProt P28482) data, read-out IC50.
Quantity: IC50 (µM)

>>> experimental_result("O=c1c(O)c(-c2ccc(O)c(O)c2)oc2cc(O)ccc12")
9.88

(1) CC(C)n1cnc2c(NCc3ccccc3)ncnc21
(2) Cc1cc(C)cc(Nc2c3c4c(cccc4[nH]c2=O)C(=O)c2ccccc2-3)c1
Which of the two gives a bigger number for IC50: 1 or 2 ? Lab note: record the label of whichever item you select.
1
